System Tested: Jak2 (UniProt O60674)
Sequence (O60674 whole entry, looked up): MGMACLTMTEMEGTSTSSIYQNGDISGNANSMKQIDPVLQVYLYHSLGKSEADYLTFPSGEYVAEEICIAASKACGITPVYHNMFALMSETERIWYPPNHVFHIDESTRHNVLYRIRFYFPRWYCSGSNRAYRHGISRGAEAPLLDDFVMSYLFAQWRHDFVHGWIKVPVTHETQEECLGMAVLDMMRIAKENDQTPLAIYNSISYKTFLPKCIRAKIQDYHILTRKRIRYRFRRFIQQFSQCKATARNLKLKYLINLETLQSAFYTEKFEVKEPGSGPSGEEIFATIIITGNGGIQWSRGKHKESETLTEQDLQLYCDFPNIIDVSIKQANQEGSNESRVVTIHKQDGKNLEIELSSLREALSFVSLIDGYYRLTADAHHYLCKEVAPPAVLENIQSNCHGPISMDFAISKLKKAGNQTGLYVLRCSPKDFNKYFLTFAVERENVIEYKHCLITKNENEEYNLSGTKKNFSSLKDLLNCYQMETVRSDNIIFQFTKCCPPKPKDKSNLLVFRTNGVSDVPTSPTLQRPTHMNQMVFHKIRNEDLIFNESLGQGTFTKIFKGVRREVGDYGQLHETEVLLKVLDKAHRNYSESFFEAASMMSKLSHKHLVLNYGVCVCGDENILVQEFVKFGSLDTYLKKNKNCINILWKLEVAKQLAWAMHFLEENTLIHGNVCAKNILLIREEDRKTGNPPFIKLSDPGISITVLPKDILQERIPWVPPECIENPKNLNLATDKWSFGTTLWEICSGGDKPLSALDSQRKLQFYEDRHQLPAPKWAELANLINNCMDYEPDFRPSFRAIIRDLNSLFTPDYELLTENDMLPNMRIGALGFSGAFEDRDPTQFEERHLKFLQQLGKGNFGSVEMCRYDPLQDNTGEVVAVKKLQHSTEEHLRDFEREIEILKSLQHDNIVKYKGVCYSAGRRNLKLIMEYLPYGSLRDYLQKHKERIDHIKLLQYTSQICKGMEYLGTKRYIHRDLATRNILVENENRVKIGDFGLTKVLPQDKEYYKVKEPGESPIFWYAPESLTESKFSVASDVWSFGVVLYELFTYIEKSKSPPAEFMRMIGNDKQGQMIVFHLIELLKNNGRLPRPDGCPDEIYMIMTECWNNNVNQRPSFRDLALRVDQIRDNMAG
Method Description: phosphorylation enrichment, bacterial display (enrichment ratio); higher = better substrate or ligand; peptides without Tyr show the background;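 further: 11-residue human phosphosite peptides and single-mutation variants displayed on the E. coli surface, counted by deep sequencing, each peptide's frequency after selection divided by its frequency in the unselected input library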;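 further: frequency after pTyr selection over input frequency; kinase dosed for 20-30% of maximal phosphorylation in three min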
Consider the following sequences; for each one, report its phosphorylation enrichment.
Answers are plain numbers.

Some solved cases for reference:
>>> print(df.to_string())
                           sequence            measurement_kind  experimental_value
0     SSSPTYLDLPF [GLI3_Y168_P169L]  phosphorylation enrichment               0.592
1  VSLEAYCKHKF [RXRA_Y403_A398V_YF]  phosphorylation enrichment                1.11
2     ERLWDCGMSSS [F8_Y1728_Y1728C]  phosphorylation enrichment                0.74
3    CVAARYMDMKG [WFIKKN2_Y93_V96M]  phosphorylation enrichment               0.654
4   LERYIYNREEY [HLA-DPB1_Y59_F64Y]  phosphorylation enrichment               0.998
5   KVQVSYKGDTK [HSPA1A_Y107_E110D]  phosphorylation enrichment                 0.5

Batch request: phosphorylation enrichment per item, same order as input.
1. AEEEIYGIFGA [SRCtide_2014]
2. QGIPWYHSQSP [FOXF1_Y331_R330W]
3. FSKRIYKGMVA [PCDH15_Y931]
4. DEEEEYEFMNR [ERBB3_Y1197_D1194E_YF]
5. ETWHNYHKFDS [MATR3_Y243_S240W]
6. GLAKEYIDPET [CSNK1G2_Y195]

result:
1: 1.35; 2: 0.977; 3: 0.402; 4: 0.903; 5: 0.71; 6: 0.904

query: Entry RASSVFTRSTG [CCR5_Y339_Y339F] : reported phosphorylation enrichment = ?
result: 0.766
